Measured target: T1, DR3 (CRD1)-Fc (human)
T1 construct: Amino acids 25-71 of DR3 fused to the Fc domain of human IgG4; purified to exclude oligomers (mainly dimeric)
T1 sequence (chain, as listed by the source limits assumed): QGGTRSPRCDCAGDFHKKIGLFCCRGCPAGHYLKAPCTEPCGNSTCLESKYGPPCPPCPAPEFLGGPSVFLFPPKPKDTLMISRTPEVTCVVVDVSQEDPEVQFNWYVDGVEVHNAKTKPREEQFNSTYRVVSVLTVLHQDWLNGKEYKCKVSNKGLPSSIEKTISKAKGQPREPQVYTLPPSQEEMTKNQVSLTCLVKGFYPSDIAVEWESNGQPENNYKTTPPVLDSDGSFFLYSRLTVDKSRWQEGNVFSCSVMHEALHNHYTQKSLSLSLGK
Experimental protocol: SPR Biacore T200, DR3(CRD1)-Fc captured by anti-human IgG, Fab as analyte, 25 C, 1:1 model, mean of 3 surface densities
Parameter: Kd
Number first, unit second.

Below: 2 binders and their reported Kd.
{"Binder": "0130 (recombinant murine Fab of 45F36) (Fab, V domains shown, murine Fab; also called 00130) VH: EVQLVESGGGLVKPGGSLKLSCAASGFTFSSYAMSWVRQSPDKRLEWVAEISSGDTYTYYPDTVTGRFTISRDNAKKTLYLEMSGLRSEDTAMYYCARDREAYYGQQYVMDYWGQGTSVTVSS VL: DIVLTQSPASLAVSLGLSVTISCRASESIEYSGTSFLQWYQQKPGQPPRLLIYGSSTVESGVPARFSGSGSGTDFSLNIHPVEEDDSAMYFCQQSRRLPWTFGGGTKLEIKR", "Parameter": "Kd", "Assay value": "120 pM"}
{"Binder": "0143 (chimeric Fab of 44F434, human IgG4 constant domain, hinge Cys->Ser) (Fab, V domains shown, IgG4-Ser, chimeric) VH: EVQLVESGGDLVMPGGSLKLSCAASGFIFSSYGLSWIRQTPDKRLEWVATISGGDSYTYYPDSVKGRFTISSDNAKNTLYLQMTSLKSEDTAMYYCATQREIYYGTYYALDHWGQGTSVTVSS VL: DIQMTQTTSSLSASLGDRVTISCRASQDINNYLNWYQQKPDGTVKLLIYYTSRLQSGVPSRFSGSGSGTDYSLTISSLEQDDIATYFCQQGSPLPWTFGGGTKLEIKR", "Parameter": "Kd", "Assay value": "1.47 pM"}

Continue with the next binder.
## Task Please report the recorded Kd for 0219 (humanized Fab of 27F44, IgG1, S49A HC) (Fab, V domains shown, Human IgG1 constant part) VH: EVQLVESGGGLVQPGGSLRLSCAASGFTFSNYDMSWVRQATGKGLEWVAAFSSDGYTFYPGSVKGRFTISRENAKNSLYLQMNSLRAGDTAVYYCARHADYANYPVMDYWGQGTLVTVSS VL: DIQMTQSPSSLSASVGDRVTITCRASKSVSTSGYSYMHWYQQKPGKAPKLLIYLASNLESGVPSRFSGSGSGTDFTLTISSLQPEDFATYYCQHSRELPLTFGGGTKVEIK .
## Result 9.55 pM

Where these numbers come from: patent US20170305994A1
